system: T1, extracellular domain of rhesus monkey BCMA (rhesus monkey, UniProt F7FFA0 1-53)
T1 construct: extracellular domain; also called RhBCMA
T1 sequence (F7FFA0 entry or part of it): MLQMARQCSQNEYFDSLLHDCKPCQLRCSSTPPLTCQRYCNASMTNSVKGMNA
test_method_notes: Octet BLI; Fab 200 nM
Form field: Kd (one value per entry).
measurement_label: Kd (nM)

binder="AB200-(2Vk30)_R2-VH-v74 (Fab, V domains shown) VH: QVQLVQSGAEVKKPGSSVKVSCKASGGTFSNYWIHWVRQAPGQGLEWMGATYRIHSDTYYAEKFKSRVTITADKSTSTAYMELSSLRSEDTAVYYCARGAIYHGFDVIDNWGQGTLVTVSS VL: DIQMTQSPSSLSASVGDRVTITCRASQSISSYLNWYQQKPGKAPKLLIYATSNLQIGVPSRFSGSGSGTDFTLTISSLQPEDFATYYCQQYRRIPWTFGQGTKLEIKR" unit_descriptor=nM assay_value=9.83
binder="AB200-(2Vk30)_R2-VH-v51 (Fab, V domains shown) VH: QVQLVQSGAEVKKPGSSVKVSCKASGGSFSNYWIHWVRQAPGQGLEWMGGTYRIQSDTYYNQKFKSRVTITADKSTSTAYMELSSLRSEDTAVYYCARGAIYHGYDVIENWGQGTLVTVSS VL: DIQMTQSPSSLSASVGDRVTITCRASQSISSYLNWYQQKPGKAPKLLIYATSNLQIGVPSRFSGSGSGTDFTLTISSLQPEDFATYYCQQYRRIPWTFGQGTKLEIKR" unit_descriptor=nM assay_value=68.9
binder="AB200-(2Vk30)_R2-VH-v43 (Fab, V domains shown) VH: QVQLVQSGAEVKKPGSSVKVSCKASGGTFTNYWIHWVRQAPGQGLEWMGGTYRIHSDTYYAQKFKSRVTITADKSTSTAYMELSSLRSEDTAVYYCARGAIYHGFDVIDNWGQGTLVTVSS VL: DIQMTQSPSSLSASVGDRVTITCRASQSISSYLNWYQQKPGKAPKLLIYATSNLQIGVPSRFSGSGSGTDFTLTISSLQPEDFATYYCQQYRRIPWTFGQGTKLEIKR" unit_descriptor=nM assay_value=25.8
binder="AB200-(2Vk30)_R2-VH-v59 (Fab, V domains shown) VH: QVQLVQSGAEVKKPGSSVKVSCKASGGTFSNYWIHWVRQAPGQGLEWMGGTYRIHSDTYYAQKFKSRVTITADKSTSTAYMELSSLRSEDTAVYYCARGAIYHGYDVIENWGQGTLVTVSS VL: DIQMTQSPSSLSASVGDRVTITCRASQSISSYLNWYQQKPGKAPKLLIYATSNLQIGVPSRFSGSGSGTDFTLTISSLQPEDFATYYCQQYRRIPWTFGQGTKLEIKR" unit_descriptor=nM assay_value=121
binder="AB200-(2Vk30)_R2-VH-v45 (Fab, V domains shown) VH: QVQLVQSGAEVKKPGSSVKVSCKASGGTYSNYWIHWVRQAPGQGLEWMGATYRIHSTTNYNQKFKSRVTITADKSTSTAYMELSSLRSEDTAVYYCARGAIFHGYDVIDNWGQGTLVTVSS VL: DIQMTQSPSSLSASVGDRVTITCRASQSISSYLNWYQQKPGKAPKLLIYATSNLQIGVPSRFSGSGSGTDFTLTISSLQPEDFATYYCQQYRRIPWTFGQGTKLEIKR" unit_descriptor=nM assay_value=3080
